Molecular target: T1, recombinantly expressed purified soluble WNV E protein (truncated form, strain 382-99) (West Nile virus strain 382-99, UniProt Q9Q6P4 291-696)
T1 construct: also called recombinant WNV-E protein; truncated E protein
T1 sequence: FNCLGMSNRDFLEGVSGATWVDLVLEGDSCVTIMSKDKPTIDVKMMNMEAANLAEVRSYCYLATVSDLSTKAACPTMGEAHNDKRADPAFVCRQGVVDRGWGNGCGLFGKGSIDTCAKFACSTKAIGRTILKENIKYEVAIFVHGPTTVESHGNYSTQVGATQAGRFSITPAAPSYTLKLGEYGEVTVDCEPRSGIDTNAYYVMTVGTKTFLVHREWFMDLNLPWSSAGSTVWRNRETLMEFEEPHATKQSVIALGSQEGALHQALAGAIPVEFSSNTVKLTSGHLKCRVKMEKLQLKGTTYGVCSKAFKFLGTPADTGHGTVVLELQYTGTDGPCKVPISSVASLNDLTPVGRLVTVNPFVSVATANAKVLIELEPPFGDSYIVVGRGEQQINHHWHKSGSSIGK
Assay: phage ELISA on coated recombinant soluble WNV E protein
Recorded OD 492 nm values for a group of binders are listed next.
test_readout: OD 492 nm (OD)

>>> measured_value("SC04-283 (scFv) scFv: EVQLVQSGAEVKKSGESLKISCKGSGYTFNTYWIGWVRQMPGKGLEWMGIIYPGDSDTIYSPSFQGQVTISADKSISTAYLQWSSLKASDSAMYYCARLTFRRGYSGSDSFLPPGDFDYWGQGTLVTVSSGTGGSGGTGSGTGGSTDIQMTQSPSTLSASVGDRVTITCRASQSISSWLAWYQQKPGKAPNLLIYAASSLQSGVPSRFSGSGSGTDFTLTISSLQPDDSATYYCQQYNTYPLTFGGGTKVEIKR")
0.074
>>> measured_value("SC04-311 (scFv) scFv: EVQLVQSGGGVVQPGRSLRLSCVASGFTFSKDAMHWVRQAPGKGLEWVAVISYDGSDKHYADSVKGRVTISRDNSRKTLYLRMDSLRAEDTALYYCARGYNSGHYFDYWGQGTLITVSSGTGGSGGTGSGTGGSTQSVLTQPPSVSAAPGQKVTISCSGTSSNIGDNYVSWYQHLPGTAPKLLIYDNNKRPSGIPDRFSGSKSGTSATLGVTGLQTGDEADYYCGTWDSSLTAVVFGGGTKLTVLG")
1.54
>>> measured_value("SC04-299 (scFv) scFv: EVQLVETGGGVVQPGRSLRLSCAASGFTFSGYAMHWVRQAPGKGLDWVAVISYDGSEKYSADSVKGRFTISRDNSKNTLYLQMNSLRAEDTAVYYCAKESGGPIWYKYYGVDVWGQGTTVTVSSGTGGSGGTGSGTGGSTSYVLTQPPSLSAAPRQRVTISCSGSSSNIGNYGVNWYQQLPGKAPKLLIYYDDLLPSGVSDRFSGSKSGTSASLAISGLQSEDEGDYYCAAWDDTLSAWVFGGGTKLTVLG")
0.072
>>> measured_value("SC04-271 (scFv) scFv: EVQLVETGAEVKKPGESLRISCKGSGYTFNNYWIGWVRQMPGKGLEWMGIIYPGDSDTRYSPSVQGHVTISADKSINTAYLQWSSLKASDTAVYYCARRPGYDYGFYYFDYWGQGTLVTVSSGTGGSGGTGSGTGGSTQSALTQPRSVSGSPGQSVTISCTGTSSDVGGYNYVSWYQHHPGKAPKLMIYDVSNRPLGVSNRFSGSKSGNTASLTISGLQAEDEADYYCSSYTSSSTYVFGTGTHLTVLS")
0.608
